Listed binders paired with reported Kd
- Study target: T1, human C1s (human)
- T1 chain: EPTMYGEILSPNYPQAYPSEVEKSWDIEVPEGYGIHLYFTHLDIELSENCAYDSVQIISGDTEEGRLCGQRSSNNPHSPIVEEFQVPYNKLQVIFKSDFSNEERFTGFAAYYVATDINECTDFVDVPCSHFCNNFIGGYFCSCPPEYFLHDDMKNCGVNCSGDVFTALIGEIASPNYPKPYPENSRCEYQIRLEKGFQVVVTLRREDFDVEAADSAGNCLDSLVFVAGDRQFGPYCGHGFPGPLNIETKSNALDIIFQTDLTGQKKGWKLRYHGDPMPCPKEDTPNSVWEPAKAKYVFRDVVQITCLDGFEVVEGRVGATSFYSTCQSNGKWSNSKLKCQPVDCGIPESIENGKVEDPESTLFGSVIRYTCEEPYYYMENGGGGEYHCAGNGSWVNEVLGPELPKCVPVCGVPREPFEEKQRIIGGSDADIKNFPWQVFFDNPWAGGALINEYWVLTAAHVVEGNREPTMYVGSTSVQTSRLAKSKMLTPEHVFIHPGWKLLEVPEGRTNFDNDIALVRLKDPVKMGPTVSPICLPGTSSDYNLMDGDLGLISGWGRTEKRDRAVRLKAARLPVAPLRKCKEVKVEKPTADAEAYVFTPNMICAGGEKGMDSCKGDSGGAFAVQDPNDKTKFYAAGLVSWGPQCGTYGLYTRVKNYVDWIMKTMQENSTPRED
- Assay info: SPR pH 7.4 37C
Report as a plain number; the unit nM is understood.

Worked examples, 2 binders total:
Challenge: Fill in the blank: the reported Kd of IPN92H0288/IPN93L0211 (antibody, V domains shown) VH: EVMLVESGGGLVKPGGSLRLSCAASGFTFSNYAMSWVRQAPGKGLEWVATISSGGSHTYELDSVDGRFTISRDNSKDTLYLQMNSLRAEDTALYYCARLFTKHAMDYWGQGTLVTVSS VL: QIVLTQSPATLSLSPGERATLSCTASSEVSESYLHWYQQKPGKAPKLWIYSTSNLASGVPSRFSGSGSGTDYTLTISSLQPEDFATYYCHQYYRLHPITFGQGTKLEIK is ____.
Response given: 1.11

Challenge: Fill in the blank: the reported Kd of IPN92H0307/IPN93L0058 (antibody, V domains shown) VH: EVMLVESGGGLVKPGGSLRLSCAASGFEFENYAMSWVRQAPGKGLEWVATISSGGSHTYELDSVDGRFTISRDNSKDTLYLQMNSLRAEDTALYYCARLFTKHAMDYWGQGTLVTVSS VL: QIVLTQSPATLSLSPGERATLSCTASSEVSSSYLHWYQQKPGKAPKLWIYSTSNLASGVPSRFSGSGSGTDYTLTISSLQPEDFATYYCHQYYRLHPITFGQGTKLEIK is ____.
Response given: 1.34

***
Challenge: Fill in the blank: the reported Kd of IPN009VH2/IPN009VK3 (antibody, V domains shown) VH: EVMLVESGGGLVKPGGSLRLSCAASGFTFSNYAMSWVRQAPGKGLEWVATISSGGSHTYYLDSVKGRFTISRDNSKDTLYLQMNSLRAEDTALYYCARLFTGYAMDYWGQGTLVTVSS VL: QIVLTQSPATLSLSPGERATLSCTASSSVSSSYLHWYQQKPGKAPKLWIYSTSNLASGVPSRFSGSGSGTDYTLTISSLQPEDFATYYCHQYYRLPPITFGQGTKLEIK is ____.
Response given: 1.19

Challenge: Fill in the blank: the reported Kd of IPN009VH2/IPN93L0021 (antibody, V domains shown) VH: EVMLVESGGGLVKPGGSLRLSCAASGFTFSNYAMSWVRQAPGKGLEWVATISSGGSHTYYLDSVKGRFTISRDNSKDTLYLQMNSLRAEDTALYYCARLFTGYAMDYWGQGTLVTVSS VL: QIVLTQSPATLSLSPGERATLSCTASSSVSSSYLHWYQQKPGKAPKLWIYSTSNLASGVPSRFSGSGSGTDYTLTISSLQPEDFATYYCHQHYRLPPITFGQGTKLEIK is ____.
Response given: 2.92

Challenge: Fill in the blank: the reported Kd of IPN009VH2/IPN93L0024 (antibody, V domains shown) VH: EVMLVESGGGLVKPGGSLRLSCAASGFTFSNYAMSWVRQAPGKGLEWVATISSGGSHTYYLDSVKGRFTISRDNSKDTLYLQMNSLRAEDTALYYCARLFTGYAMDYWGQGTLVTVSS VL: QIVLTQSPATLSLSPGERATLSCTASSSVSSSYLHWYQQKPGKAPKLWIYSTSNLASGVPSRFSGSGSGTDYTLTISSLQPEDFATYYCHQYYRLHPITFGQGTKLEIK is ____.
Response given: 3.4

All figures here come from patent US12084513.
